target-system: T1, human BCMA on cells (human, UniProt Q02223 1-184)
T1 sequence: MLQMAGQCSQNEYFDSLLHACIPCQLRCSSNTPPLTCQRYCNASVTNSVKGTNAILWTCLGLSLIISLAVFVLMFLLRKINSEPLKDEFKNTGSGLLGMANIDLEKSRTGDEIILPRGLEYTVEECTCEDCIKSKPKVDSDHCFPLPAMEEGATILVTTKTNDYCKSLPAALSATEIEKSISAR
assay-details: cell-based or functional assay
Here, each record is paired with measured Killing (% killed), Effector:target ratio of 1:2 data.
The reply should be a number in %, with the unit left off.

CAR comprising scFv-21′ (SEQ ID NO: 70) (other, CAR on mRNA-electroporated human CD8+ T cells; Only the scFv is identified; not shown: rest of the CAR (hinge, transmembrane, cytoplasmic domains) not specified for this construct) DIVLTQSPSSLSASVGDRATISCRASESVTILGSHLIHWYQQKPGQAPKLLINLASNVNTGVPARFSGSGSGTDFTLTISSVEPEDVAVYYCLQSRTIPRTFGQGTKVEIKGSTSGSGKPGSGEGSTKGQIQLVQSGPELKKPGGSVKISCAASGYTFTDYSINWVRQAPGKGLEWVGWINTETREPAYAYDFRGRFTFSADTSKSTAYLQMNSLRAEDTAVYYCALDYSYAMDYWGQGTLVTVSS :: 83

Qu. Look at this binder and give its reported Killing (% killed), Effector:target ratio of 1:2. CAR comprising scFv-9′ (SEQ ID NO: 65) (other, CAR on mRNA-electroporated human CD8+ T cells; Only the scFv is identified; not shown: rest of the CAR (hinge, transmembrane, cytoplasmic domains) not specified for this construct) DIVLTQSPSSLSASVGDRATISCRASESVSFLGINLIHWYQQKPGQAPKLLIYSASNLQSGVPARFSGSGSGTDFTLTISSVEPEDVAVYYCLQSKNFPRTFGQGTKVEIKGSTSGSGKPGSGEGSTKGQIQLVQSGPELKKPGGSVKISCAASGYTFTDYSINWVRQAPGKGLEWVGWINTETREPAYAYDFRGRFTFSADTSKSTAYLQMNSLRAEDTAVYYCALDYSYAMDYWGQGTLVTVSS
Ans. 86

Qu. Look at this binder and give its reported Killing (% killed), Effector:target ratio of 1:2. CAR comprising scFv-Y32 (SEQ ID NO: 57) (other, CAR on mRNA-electroporated human CD8+ T cells; Only the scFv is identified; not shown: rest of the CAR (hinge, transmembrane, cytoplasmic domains) not specified for this construct) DIVLTQSPSSLSASVGDRATISCRASESVTILGSHLIHWYQQKPGQAPKLLIQLASNVQTGVPARFSGSGSGTDFTLTISSVEPEDVAVYYCLQSRTIPRTFGQGTKVEIKGSTSGSGKPGSGEGSTKGQIQLVQSGPELKKPGGSVKISCAASGYTFTDYSINWVRQAPGKGLEWVGWINTETREPAYAYDFRGRFTFSADTSKSTAYLQMNSLRAEDTAVYYCALDYSYAMDYWGQGTLVTVSS
Ans. 85

Qu. Look at this binder and give its reported Killing (% killed), Effector:target ratio of 1:2. CAR comprising scFv-Y37 (SEQ ID NO: 60) (other, CAR on mRNA-electroporated human CD8+ T cells; Only the scFv is identified; not shown: rest of the CAR (hinge, transmembrane, cytoplasmic domains) not specified for this construct) DIVLTQSPASLAVSPGQRATITCRASESVTILGSHLIHWYQQKPGQPPKLLIQLASNVQTGVPARFSGSGSGTDFTLTISSVEPEDTANYYCLQSRTIPRTFGQGTKVEIKGSTSGSGKPGSGEGSTKGQIQLVQSGPELKKPGGSVKISCKASGYTFTDYSINWVRQAPGKGLEWVGWINTETREPAYAYDFTGRFTFSADTSKSMAYLQINSLRAEDTAVYYCALDYSYAMDYWGQGTLVTVSS
Ans. 83

Qu. Look at this binder and give its reported Killing (% killed), Effector:target ratio of 1:2. CAR comprising scFv-8′ (SEQ ID NO: 64) (other, CAR on mRNA-electroporated human CD8+ T cells; Only the scFv is identified; not shown: rest of the CAR (hinge, transmembrane, cytoplasmic domains) not specified for this construct) DIVLTQSPSSLSASVGDRATISCRASESVSFLGINLIHWYQQKPGQAPKLLIYSASNLQSGVPARFSGSGSGTDFTLTISSVEPEDVAVYYCLQSRTLPRTFGQGTKVEIKGSTSGSGKPGSGEGSTKGQIQLVQSGPELKKPGGSVKISCAASGYTFTDYSINWVRQAPGKGLEWVGWINTETREPAYAYDFRGRFTFSADTSKSTAYLQMNSLRAEDTAVYYCALDYSYAMDYWGQGTLVTVSS
Ans. 26

Qu. Look at this binder and give its reported Killing (% killed), Effector:target ratio of 1:2. CAR comprising scFv-13′ (SEQ ID NO: 69) (other, CAR on mRNA-electroporated human CD8+ T cells; Only the scFv is identified; not shown: rest of the CAR (hinge, transmembrane, cytoplasmic domains) not specified for this construct) DIVLTQSPSSLSASVGDRATISCRASESVSFLGINLIHWYQQKPGQAPKLLIYLASNLETGVPARFSGSGSGTDFTLTISSVEPEDVAVYYCLQSRTLPRTFGQGTKVEIKGSTSGSGKPGSGEGSTKGQIQLVQSGPELKKPGGSVKISCAASGYTFTSYSINWVRQAPGKGLEWVGWINTETREPAYAQGFTGRFTFSADTSKSTAYLQMNSLRAEDTAVYYCALDYLYSLDFWGQGTLVTVSS
Ans. 77
